- assay.target: Abf1 (UniProt P14164)
- Sequence: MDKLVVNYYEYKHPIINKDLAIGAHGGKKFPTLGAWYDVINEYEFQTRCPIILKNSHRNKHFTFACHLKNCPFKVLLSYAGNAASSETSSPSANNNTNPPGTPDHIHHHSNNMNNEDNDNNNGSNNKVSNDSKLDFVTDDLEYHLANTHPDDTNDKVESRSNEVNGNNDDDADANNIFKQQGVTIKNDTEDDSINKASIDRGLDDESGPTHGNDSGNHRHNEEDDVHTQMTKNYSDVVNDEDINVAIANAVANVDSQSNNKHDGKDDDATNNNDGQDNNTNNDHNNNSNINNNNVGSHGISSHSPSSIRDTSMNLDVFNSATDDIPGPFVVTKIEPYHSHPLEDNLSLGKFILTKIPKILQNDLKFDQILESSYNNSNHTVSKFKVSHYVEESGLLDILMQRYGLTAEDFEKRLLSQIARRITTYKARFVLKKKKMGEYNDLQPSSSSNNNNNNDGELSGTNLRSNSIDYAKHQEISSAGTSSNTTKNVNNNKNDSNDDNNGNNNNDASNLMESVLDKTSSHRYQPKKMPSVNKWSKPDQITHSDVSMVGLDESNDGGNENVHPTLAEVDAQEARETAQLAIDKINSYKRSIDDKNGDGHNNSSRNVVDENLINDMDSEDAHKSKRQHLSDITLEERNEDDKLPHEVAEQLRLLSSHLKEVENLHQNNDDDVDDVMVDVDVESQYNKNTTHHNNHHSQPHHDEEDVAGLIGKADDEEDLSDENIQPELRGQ
- measurement.description: PBM E-score (8-mer binding enrichment) (E-score (-0.5 to 0.5)); higher = stronger / more preferred TF binding
- conditions.used: protein concentration: 200 nM; construct: GST-full length
In all, about 33,000 sequences were measured (“E-score (-0.5 to 0.5)”: median about -0.015, highest 2% from about 0.3 on). The entries come from a sample that favours the highest values as a whole.
Hi all, reminder that labels come from PBM E-score, split as lowest: < 0.08; middle: ≥ 0.08 and < 0.2; highest: ≥ 0.2

monomer.sequence	assay.target	label.value
CAGCTTAA	Abf1 (UniProt P14164)	lowest
GAGCGATA	Abf1 (UniProt P14164)	highest
CGAGGGAC	Abf1 (UniProt P14164)	lowest
AACTCTAT	Abf1 (UniProt P14164)	lowest
GCGACCAC	Abf1 (UniProt P14164)	middle
CAGCGATA	Abf1 (UniProt P14164)	middle
TAGCGATA	Abf1 (UniProt P14164)	highest
CAACGATC	Abf1 (UniProt P14164)	middle
ACCCTCGA	Abf1 (UniProt P14164)	lowest
ACTGGAGA	Abf1 (UniProt P14164)	lowest
GAGAGTGA	Abf1 (UniProt P14164)	highest
AATGCTCC	Abf1 (UniProt P14164)	lowest
GTACGATA	Abf1 (UniProt P14164)	highest
ACTAAGTG	Abf1 (UniProt P14164)	middle
TAACGAGA	Abf1 (UniProt P14164)	highest
CTCGGGAA	Abf1 (UniProt P14164)	middle
GAGAGTGC	Abf1 (UniProt P14164)	lowest
TAACGAAA	Abf1 (UniProt P14164)	highest
GAACGATC	Abf1 (UniProt P14164)	highest
GAACGATA	Abf1 (UniProt P14164)	highest
